Molecular target: TRAP1 enzyme (Homo sapiens, UniProt Q12931)
Construct: 150 nM Trap1 enzyme was incubated with various concentrations of the test compound
Sequence (Q12931 60-704): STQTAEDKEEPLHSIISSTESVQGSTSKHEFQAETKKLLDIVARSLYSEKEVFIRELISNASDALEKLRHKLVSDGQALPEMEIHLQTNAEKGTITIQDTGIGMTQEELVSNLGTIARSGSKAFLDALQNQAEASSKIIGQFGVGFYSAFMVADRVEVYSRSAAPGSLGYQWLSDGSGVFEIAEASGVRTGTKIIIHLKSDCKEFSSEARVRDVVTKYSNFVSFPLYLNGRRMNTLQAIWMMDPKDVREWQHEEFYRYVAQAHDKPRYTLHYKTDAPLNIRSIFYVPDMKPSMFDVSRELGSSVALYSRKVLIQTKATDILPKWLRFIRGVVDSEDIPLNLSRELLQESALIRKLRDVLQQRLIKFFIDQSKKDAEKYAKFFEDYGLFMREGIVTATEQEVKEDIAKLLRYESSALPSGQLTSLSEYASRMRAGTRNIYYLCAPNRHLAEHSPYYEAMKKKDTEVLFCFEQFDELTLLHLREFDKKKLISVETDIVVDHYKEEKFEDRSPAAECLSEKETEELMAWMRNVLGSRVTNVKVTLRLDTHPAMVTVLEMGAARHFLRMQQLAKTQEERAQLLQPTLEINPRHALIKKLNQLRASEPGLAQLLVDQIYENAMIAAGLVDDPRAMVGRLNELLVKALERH
Assay: ADP Glo assay of TRAP1 ATPase activity
Type: biochemical
Settings: maximal percent activation; read-out: ADP GLO DRC: Mean Emax
Reported Emax values for a set of compounds

Previously resolved entries follow.
COc1ncc(NC(=O)c2csc(-c3cccc(OCC(O)CO)n3)n2)cc1S(=O)(=O)Nc1c(C)cccc1C (stereo not shown) [compound 2463]: 200 to 300%
COc1ncc(NC(=O)c2cccc(-c3noc(C)n3)c2)cc1S(=O)(=O)Nc1c(C)cccc1C [compound 1401]: 160 to 199%
COc1ncc(NC(=O)c2csc(-c3ccccc3)n2)cc1S(=O)(=O)Nc1ncc(Cl)cn1 [compound 1383]: > 300%

Field: next compound
Task item: Using the record for COc1ncc(NC(=O)c2ncoc2C)cc1S(=O)(=O)Nc1ccc(Cl)cc1 [compound 1959] , report its Emax.
Reply: 160 to 199%

###

Listing of entries alongside the reported Emax.
Biological target: TRAP1 enzyme (Homo sapiens, UniProt Q12931)
Construct: 150 nM Trap1 enzyme was incubated with various concentrations of the test compound
Test: ADP Glo assay of TRAP1 ATPase activity
Type: biochemical
Conditions: maximal percent activation; read-out: ADP GLO DRC: Mean Emax
Method: Potency of test compounds to modulate the ATPase activity of TRAP1 enzyme was evaluated using ADP Glo assay. The assay is based on quantification of the ADP generated from ATP in the ATPase reaction. […] Second, the Kinase Detection Reagent is added to simultaneously convert ADP to ATP and allow the newly synthesized ATP to be measured using a luciferase/luciferin reaction. […]

As a guide, the following entries are already answered.
COc1ncc(NC(=O)c2csc3c2CN(C)CC3)cc1S(=O)(=O)Nc1c(C)cccc1C: 200 to 300%
COc1ncc(NC(=O)c2ccnc3c2OCCC3)cc1S(=O)(=O)Nc1c(C)cccc1C: > 300%
CCc1cccc(C)c1NS(=O)(=O)c1cc(NC(=O)c2csc(-c3ccccc3)n2)cnc1OC: 119 to 159%

Task item: Form field: reported Emax of COc1ncc(NC(=O)c2csc(-c3ccccc3)n2)cc1S(=O)(=O)Nc1ccccc1CO
Reply: 160 to 199%

Task item: Proceed to COc1ncc(NC(=O)c2coc(-c3ccccc3)n2)cc1S(=O)(=O)Nc1cccc2cnc(C)cc12
Reply: 160 to 199%

Task item: Query COc1cccc(OC)c1NS(=O)(=O)c1cc(NC(=O)c2csc(-c3ccccc3)n2)cnc1OC next
Reply: 200 to 300%

Task item: // next record COc1ncc(NC(=O)c2csc(-c3ccccc3)n2)cc1S(=O)(=O)Nc1cccc(C#N)n1
Reply: 200 to 300%

Task item: COc1ncc(NC(=O)c2ccccc2C(=O)c2ccccc2)cc1S(=O)(=O)Nc1ccc(Cl)cc1 , same question.
Reply: 160 to 199%

Task item: Can you check COc1ncc(NC(=O)c2csc(-c3ccccc3)n2)cc1S(=O)(=O)Nc1cccc(C#N)c1C next?
Reply: 119 to 159%

Task item: Next entry: COc1ncc(NC(=O)c2ncc(-c3ccccc3)o2)cc1S(=O)(=O)Nc1c(C(C)C)ccnc1C(C)C
Reply: 200 to 300%

Task item: Also COc1ncc(NC(=O)c2ncc(-c3ccccc3)o2)cc1S(=O)(=O)Nc1cc(C)n(C(C)C)n1 ?
Reply: 160 to 199%

Task item: How about this compound: COc1ncc(NC(=O)c2ncc(-c3ccccc3)o2)cc1S(=O)(=O)Nc1cc(-c2ccc(C)cc2)nn1C
Reply: 200 to 300%

Task item: And what about the compound COc1ncc(NC(=O)c2coc(-c3cc(F)c(F)c(F)c3)n2)cc1S(=O)(=O)Nc1cccc(C(F)(F)F)n1 ?
Reply: 200 to 300%

Task item: Item: COc1ncc(NC(=O)c2ncc(-c3ccccc3)o2)cc1S(=O)(=O)Nc1sc2c(c1C#N)CCCC2
Reply: 160 to 199%

Task item: Then COc1ncc(NC(=O)c2ncc(-c3ccccc3)o2)cc1S(=O)(=O)Nc1cc(F)c(C#N)cc1F ?
Reply: 119 to 159%

Task item: One more compound: COc1ncc(NC(=O)c2coc(-c3ccccc3)n2)cc1S(=O)(=O)Nc1c(C)ccc(C#N)c1C
Reply: 160 to 199%

Task item: What do we get for COc1ncc(NC(=O)c2cccc3ocnc23)cc1S(=O)(=O)Nc1c(C)cccc1C ?
Reply: 200 to 300%

Task item: How about COc1ncc(NC(=O)c2csc3c2CNCC3)cc1S(=O)(=O)Nc1c(C)cccc1C ?
Reply: 160 to 199%

Task item: Same question, COc1ncc(NC(=O)c2csc(-c3ccccc3)n2)cc1S(=O)(=O)Nc1c(C)cccc1P(C)(C)=O this time
Reply: 200 to 300%

Task item: Moving on to the next compound: COc1ncc(NC(=O)c2ncc(-c3ccccc3)o2)cc1S(=O)(=O)Nc1cc(F)c(C)cc1C#N
Reply: 200 to 300%
